Target: T1, synthetic non-modified human Hepcidin-25 (human, not fully specified)
T1 construct: also called hHepcidin-25; non-biotinylated human hepcidin
T1 peptide: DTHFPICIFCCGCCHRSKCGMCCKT
Test: competition ELISA: non-biotinylated human hepcidin-25 titrated against a constant concentration of mutein; free mutein detected on plate-captured biotinylated human hepcidin
Reported IC50 by item:

Here is how some binders turned out for IC50.
[
  {
    "Binder": "lipocalin mutein of SEQ ID NO: 8 (designed binder, also called Lcn2 mutein) QDSTSDLIPAPPLSKVPLQQNFQDNQFHGKWYVVGLAGNEVLREDKDPMKMWATIYELKEDKSYNVTIVMPLAEKCEYLFQTFVPGSQPGEFTLGGIKSGPGRTSGLVRVVSTNYNQHAMVFFKVVWQNREVFWVTLYGRTKELTSELKENFIRFSKSLGLPENHIVFPVPIDQCIDG",
    "IC50": "0.1 nM"
  },
  {
    "Binder": "lipocalin mutein of SEQ ID NO: 1 (designed binder, also called Lcn2 mutein; hNGAL mutein) QDSTSDLIPAPPLSKVPLQQNFQDNQFHGKWYVVGLAGNEVLREDKDPMKMWATIYELEEDKSYNVTIVMFLAKKCEYLFQTFVPGSQPGEFTLGDIKSSPGRTSGLVRVVSTNYNQHAMVFFKTVWQNREVFWITLYGRTKELTSELKENFIRFSKSLGLPENHIVFPVPIDQCIDG",
    "IC50": "0.34 nM"
  }
]

INPUT: I'd like to know its IC50. The binder in question is lipocalin mutein of SEQ ID NO: 11 (designed binder, also called Lcn2 mutein) QDSTSDLIPAPPLSKVPLQQNFQDNQFHGKWYVVGLAGNEILREDKDPMKMWATIYELKEDKSYNVTIVMFLAKKCEYLFQTFVPGSQPGEFTLGDIKSSPGRTSGLVRVVSTNYNQHAMVFFKVVWQNREVFWITLYGRTKELTSGLKENFIRFSKSLGLPENHIVFPVPIDQCIDG
OUTPUT: 0.11 nM
